# Test system: HDAC activity in primary mouse cortical cultures
# experimentalProtocol: Whole-Cell Histone Deacetylase (HDAC) Inhibition Assay in Primary Mouse Cortical Cultures
# Type: cell-based
# conditionLabel: whole-cell (WC), mouse cortical neurons; Table 10; read-out: HDAC Inhibition (IC50 μM) WC mouse cortical neurons
measuredAttribute: IC50

Examples from the recorded data:
O=C(NO)c1ccc(C#CCN2C(=O)c3ccccc3Oc3ccccc32)cc1 :: 1 to 5 µM
O=C(NO)c1ccc(/C=C/CN2C(=O)c3ccccc3Oc3ccccc32)cc1 :: < 1 µM
O=C(Cc1ccc(CN2c3ccccc3C=Cc3ccccc32)cc1)NO :: 5 to 15 µM
O=C(NO)c1ccc(CN2c3ccccc3C=Cc3ccccc32)cc1 :: 5 to 15 µM
O=C(NO)c1ccc(OCCN2C(=O)c3ccccc3Oc3ccccc32)cc1 :: < 1 µM
O=C(NO)c1ccc(CN2C(=O)c3ccccc3Oc3ccccc32)cc1 :: < 1 µM
O=C(NO)c1cnc(NC2c3ccccc3C=C(F)c3ccccc32)nc1 (centres unmarked) :: < 1 µM
O=C(NO)c1ccc(CCCN2C(=O)c3ccccc3Oc3ccccc32)cc1 :: < 1 µM

Please state, for each entry, its recorded IC50.
1. O=C(NO)c1ccc(OCCN2C(=O)c3cccnc3Oc3ccccc32)cc1
2. O=C(NO)c1cnc(N2CCn3c(nnc3-c3ccccc3)C2)nc1
3. O=C(CCCCCON=c1c2ccccc2ccc2ccccc12)NO

Response:
< 1 µM
1 to 5 µM
5 to 15 µM

====

# testedTarget: one or more of HDAC-1, HDAC-2, HDAC-3, HDAC-4, HDAC-5, HDAC-6, HDAC-7, HDAC-8, HDAC-9, HDAC-10 and HDAC-11
# experimentalProtocol: Inhibition of Histone Deacetylase Enzymatic Activity (Boc-Lys(Ac)-AMC substrate, Fluor-de-Lys developer)
# Format: biochemical
# conditionLabel: Table 10; read-out: HDAC Inhibition (IC50 μM) HDAC Enzyme
Assign IC50 to each entry below.

Please state, for each entry, its recorded IC50.
1. O=C(NO)c1cnc(N2CCCN(C(=O)OCc3ccccc3)CC2)nc1
2. O=C(NO)c1ccc(OCCN2C(=O)c3ccccc3Oc3ccccc32)cc1Cl
3. O=C(CCCCCCCN1C(=O)c2cccnc2N(C2CC2)c2ccccc21)NO
4. O=C(CCCCON=C1c2ccccc2CCc2ccccc21)NO
5. O=C(CCc1ccc(CN2C(=O)c3ccccc3Oc3ccccc32)cc1)NO
6. O=C(NO)c1cnc(N2C[C@H]3C[C@@]3(c3ccc(C(F)(F)F)cc3)C2)nc1
7. O=C(C=C1c2ccccc2C=Cc2ccccc21)NO
8. O=C(NO)c1ccc(OCC(=O)N2Cc3ccccc3Oc3ccccc32)cc1

Response:
0.05 to 0.1 µM
1 to 10 µM
0.1 to 1 µM
0.1 to 1 µM
0.1 to 1 µM
0.1 to 1 µM
0.1 to 1 µM
0.1 to 1 µM

====

# System: HDAC activity in primary mouse cortical cultures
# experimentalProtocol: Whole-Cell Histone Deacetylase (HDAC) Inhibition Assay in Primary Mouse Cortical Cultures
# Type: cell-based
# conditionLabel: whole-cell (WC), mouse cortical neurons; Table 9; read-out: HDAC Inhibition (IC50 μM) WC mouse cortical neurons
measuredAttribute: IC50

Examples from the recorded data:
O=C(NO)c1ccc(N2C[C@@H]3C[C@H]2CN3c2cccc(C(F)(F)F)c2)cc1F :: 5 to 15 µM
O=C(NO)c1cnc(N2C[C@@H]3C[C@H]2CN3c2cccc(OC(F)F)c2)nc1 :: < 1 µM
O=C(NO)c1ccc(N2C[C@@H]3C[C@H]2CN3c2nccc(C(F)(F)F)n2)cc1 :: 1 to 5 µM
O=C(NO)c1cnc(N2C[C@@H]3C[C@H]2CN3c2ccc(C(F)(F)F)cc2)nc1 :: 1 to 5 µM
CN(C)C(=O)c1cccc(N2C[C@@H]3C[C@H]2CN3c2ncc(C(=O)NO)cn2)c1 :: < 1 µM

Please state, for each entry, its recorded IC50.
1. O=C(NO)c1cnc(N2C[C@@H]3C[C@H]2CN3)nc1
2. O=C(NO)c1cnc(N2C[C@@H]3C[C@H]2CN3C(=O)c2ccccc2)nc1
3. Cc1ccc(N2C[C@@H]3C[C@H]2CN3c2ccc(C(=O)NO)cc2)cc1
4. COc1cccc(N2CC3CC2CN3c2ccc(C(=O)NO)cc2)c1 (stereo not shown)
5. O=C(NO)c1cnc(N2C[C@@H]3C[C@H]2CN3c2cccc(F)c2)nc1

Response:
1: 5 to 15 µM; 2: < 1 µM; 3: 1 to 5 µM; 4: 1 to 5 µM; 5: < 1 µM
